// data source = patent US20150011462A1

This section presents binders with their documented IC50 values.
Biological target: T1, human GLP-1 receptor (human, UniProt P43220 24-463)
T1 construct: whole, on cells
Test: competitive binding (SPA): displacement of 125I-GLP-1(7-36)NH2 from BHK cell membranes with human GLP-1 receptor; high HSA (2.0% final)
Numbered stars: 1 amine (or outer) side, 2 acyl side, 3 side chain; on linkers, the order of the positions; unused ones are H or OH. Square brackets hold non-standard residues; d marks the D form. Side chains are listed from the residue outwards. Ends that are not written are not given here. * marks the point of attachment. C20 diacid = O=C(O)CCCCCCCCCCCCCCCCCCC(=O)*; γGlu = O=C(O)[C@H](CCC(=O)[*:2])N[*:1]; Desaminohistidyl = O=C(CCc1c[nH]cn1)*; Trx = NC[C@H]1CC[C@H](C(=O)O)CC1; PEG4 = NCCOCCOCCOCCOCCC(=O)O; AEEA = NCCOCCOCC(=O)O; Aib = CC(C)(N)C(=O)O

{"columns": ["binder", "unit-symbol", "comparator", "IC50"],
 "data": [
  ["H[Aib]EGTFTSDVSSYLEEQAAREFIAWLVRGRGK([PEG4-γGlu-Trx-C20 diacid])GGSK([PEG4-γGlu-Trx-C20 diacid]) (Double-acylated, C-terminally extended GLP-1 analogue made by SPPS; also called 10)", "nM", "=", 123],
  ["H[Aib]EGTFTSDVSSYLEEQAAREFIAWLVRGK([AEEA-AEEA-γGlu-Trx-C20 diacid])GEGPAK([AEEA-AEEA-γGlu-Trx-C20 diacid]) (Double-acylated, C-terminally extended GLP-1 analogue made by SPPS; also called 16)", "nM", "=", 602],
  ["H[Aib]EGTFTSDVSSYLEEQAARK([AEEA-AEEA-γGlu-Trx-C20 diacid])FIAWLVRGRGGGGSK([AEEA-AEEA-γGlu-Trx-C20 diacid]) (Double-acylated, C-terminally extended GLP-1 analogue made by SPPS)", "nM", "=", 275],
  ["H[Aib]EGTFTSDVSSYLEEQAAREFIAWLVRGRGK([AEEA-AEEA-AEEA-AEEA-γGlu-Trx-C20 diacid])GGSK([AEEA-AEEA-AEEA-AEEA-γGlu-Trx-C20 diacid]) (Double-acylated, C-terminally extended GLP-1 analogue made by SPPS; also called 17)", "nM", "=", 99],
  ["H[Aib]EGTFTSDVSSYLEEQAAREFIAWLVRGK([AEEA-AEEA-γGlu-Trx-C20 diacid])GAESPK([AEEA-AEEA-γGlu-Trx-C20 diacid]) (Double-acylated, C-terminally extended GLP-1 analogue made by SPPS; also called 14)", "nM", "=", 530],
  ["H[Aib]EGTFTSDVSSYLEEQAAREFIAK([AEEA-AEEA-γGlu-Trx-C20 diacid])LVRGRGGGGSK([AEEA-AEEA-γGlu-Trx-C20 diacid]) (Double-acylated, C-terminally extended GLP-1 analogue made by SPPS)", "nM", "≥", 1000],
  ["[Desaminohistidyl][Aib]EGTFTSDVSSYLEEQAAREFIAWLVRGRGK([AEEA-AEEA-AEEA-AEEA-γGlu-Trx-C20 diacid])GGSK([AEEA-AEEA-AEEA-AEEA-γGlu-Trx-C20 diacid]) (Double-acylated, C-terminally extended GLP-1 analogue made by SPPS; also called 18) [N{Alpha}([Imp …]", "nM", "=", 219],
  ["H[Aib]EGTFTSDVSSYLEEK([AEEA-AEEA-γGlu-Trx-C20 diacid])AAREFIAWLVRGRGGGGSK([AEEA-AEEA-γGlu-Trx-C20 diacid]) (Double-acylated, C-terminally extended GLP-1 analogue made by SPPS)", "nM", "=", 113]
]}
